Molecular target: Chymotrypsin-like elastase family member 2A (Sus scrofa) (UniProt P08419)
Assay: The second order inactivation rate constant expressed as inhibition of porcine pancreatic elastase (PPE).Inhibitor concentrations were 0.04-2.0 mM
# Lookup of reported K obs / 1 keyed by entry
State the answer as a number, implicitly in M⁻¹ s⁻¹.

Below, 2 molecules whose answers are already recorded.
molecule	K obs / 1, M⁻¹ s⁻¹
O=C(CCc1ccccc1)Nc1ccc2c(Cl)c(OCCBr)oc(=O)c2c1	11
O=C(NCc1ccccc1)Nc1ccc2c(Cl)c(OCCCBr)oc(=O)c2c1	13

Lookup: Supply K obs / 1 value. Item: CC(C)(C)OC(=O)N[C@@H](Cc1ccccc1)C(=O)Nc1ccc2c(Cl)c(OCCBr)oc(=O)c2c1
Found: 50

Lookup: Supply K obs / 1 value. Item: CC(C)(C)OC(=O)N[C@@H](Cc1c[nH]c2ccccc12)C(=O)Nc1ccc2c(Cl)c(OCCBr)oc(=O)c2c1
Found: 12

Lookup: Supply K obs / 1 value. Item: O=C(O)CCC(=O)N[C@@H](Cc1ccccc1)C(=O)Nc1ccc2c(Cl)c(OCCBr)oc(=O)c2c1
Found: 1900

Lookup: Supply K obs / 1 value. Item: O=C(NCc1ccccc1)Nc1ccc2c(Cl)c(OCCBr)oc(=O)c2c1
Found: 3010

Lookup: Supply K obs / 1 value. Item: O=c1oc(OCCBr)c(Cl)c2ccc(N[N+](=O)[O-])cc12
Found: 6330

---

Target: Neutrophil elastase (Homo sapiens) (UniProt P08246)
Sequence (whole entry): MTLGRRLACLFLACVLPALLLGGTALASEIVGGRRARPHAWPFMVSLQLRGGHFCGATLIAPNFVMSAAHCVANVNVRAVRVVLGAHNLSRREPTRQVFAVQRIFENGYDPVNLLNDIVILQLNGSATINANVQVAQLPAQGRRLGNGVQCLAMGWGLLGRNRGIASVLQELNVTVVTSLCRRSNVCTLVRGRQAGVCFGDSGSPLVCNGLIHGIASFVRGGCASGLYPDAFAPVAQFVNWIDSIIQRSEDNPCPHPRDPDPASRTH
Test: The second order inactivation rate constant expressed as inhibition of human leukocyte elastase (HLE). Inhibitor concentrations were 0.07-710 uM
# Lookup of reported log10 K obs / 1 keyed by entry
Heads up: the numbers are on a log10 scale; they represent K obs / 1 in M⁻¹ s⁻¹.

Below, 4 compounds whose answers are already recorded.
compound	readout_value
O=C(CCC(=O)OCc1ccccc1)Nc1ccc2c(Cl)c(OCCBr)oc(=O)c2c1	3.51
CC(C)(C)OC(=O)N[C@@H](Cc1ccccc1)C(=O)Nc1ccc2c(Cl)c(OCCBr)oc(=O)c2c1	5.16
CC(C)(C)OC(=O)N[C@@H](Cc1c[nH]c2ccccc12)C(=O)Nc1ccc2c(Cl)c(OCCBr)oc(=O)c2c1	5.23
O=C(Nc1ccccc1)Nc1ccc(C(=O)NC(Cc2ccccc2)C(=O)Nc2ccc3c(Cl)c(OCCBr)oc(=O)c3c2)cc1 (stereo unspecified)	3.79

Lookup: Supply log10 K obs / 1 value. Item: Cc1ccc(C(=O)N[C@@H](Cc2ccccc2)C(=O)Nc2ccc3c(Cl)c(OCCBr)oc(=O)c3c2)cc1
Found: 4.69

Lookup: Supply log10 K obs / 1 value. Item: CC(C)(C)OC(=O)N[C@H](Cc1ccccc1)C(=O)Nc1ccc2c(Cl)c(OCCBr)oc(=O)c2c1
Found: 5.20

Lookup: Supply log10 K obs / 1 value. Item: C[C@@H](NC(=O)Nc1ccc2c(Cl)c(OCCBr)oc(=O)c2c1)c1cccc2ccccc12
Found: 5.49

Lookup: Supply log10 K obs / 1 value. Item: O=c1oc(OCCBr)c(Cl)c2ccc(N[N+](=O)[O-])cc12
Found: 4.82

Lookup: Supply log10 K obs / 1 value. Item: O=C1CC(c2ccccc2)CC(=O)N1c1ccc2c(Cl)c(OCCBr)oc(=O)c2c1
Found: 4.93

Lookup: Supply log10 K obs / 1 value. Item: O=C(O)CCC(=O)N[C@@H](Cc1ccccc1)C(=O)Nc1ccc2c(Cl)c(OCCBr)oc(=O)c2c1
Found: 4.60

Lookup: Supply log10 K obs / 1 value. Item: O=C(Nc1ccccc1)Nc1ccc2c(Cl)c(OCCBr)oc(=O)c2c1
Found: 6.08

Lookup: Supply log10 K obs / 1 value. Item: C[C@@H](OC(=O)Nc1ccccc1)C(=O)Nc1ccc2c(Cl)c(OCCBr)oc(=O)c2c1
Found: 5.15

Lookup: Supply log10 K obs / 1 value. Item: CC(Br)COc1oc(=O)c2cc(N)ccc2c1Cl (stereo unspecified)
Found: 4.38

---

Target: Chymotrypsinogen A (Bos taurus) (UniProt P00766)
Experiment: The second order inactivation rate constant was expressed as inhibition of chymotrypsin (ChT). Inhibitor concentrations were 3.4-70 uM
readout_label: k obs / 1 (M⁻¹ s⁻¹)
State the answer as a number, implicitly in M⁻¹ s⁻¹.

Below, 3 molecules whose answers are already recorded.
compound	measured_on	k obs / 1 (M⁻¹ s⁻¹)
CCCOc1oc(=O)c2cc(N/C(S)=N/Cc3ccccc3)ccc2c1Cl	Chymotrypsinogen A (Bos taurus) (UniProt P00766)	120
CCCOc1oc(=O)c2cc(NC(=O)NCC)ccc2c1Cl	Chymotrypsinogen A (Bos taurus) (UniProt P00766)	12000
CCCOc1oc(=O)c2cc(NC(=O)[C@H](Cc3ccccc3)NS(=O)(=O)c3ccc(C)cc3)ccc2c1Cl	Chymotrypsinogen A (Bos taurus) (UniProt P00766)	6100

Lookup: Supply k obs / 1 value. Item: CCCOc1oc(=O)c2cc(N/C(S)=N/c3ccccc3)ccc2c1Cl
Found: 240

Lookup: Supply k obs / 1 value. Item: CCCOc1oc(=O)c2cc(NC(=O)Nc3ccccc3)ccc2c1Cl
Found: 5200

---

Molecular target: Neutrophil elastase (Homo sapiens) (UniProt P08246)
Test: The second order inactivation rate constant expressed as inhibition of human leukocyte elastase (HLE). Inhibitor concentrations were 0.07-710 uM
readout_label: K obs / 1 (M⁻¹ s⁻¹)
State the answer as a number, implicitly in M⁻¹ s⁻¹.

compound	K obs / 1 / M⁻¹ s⁻¹
CC(C)NC(=O)Nc1ccc2c(Cl)c(OCCBr)oc(=O)c2c1	646000

Lookup: Supply K obs / 1 value. Item: O=C(NCc1ccccc1)Nc1ccc2c(Cl)c(OCCBr)oc(=O)c2c1
Found: 480000

Lookup: Supply K obs / 1 value. Item: CC(C)(C)OC(=O)N[C@@H](Cc1ccccc1)C(=O)Nc1ccc2c(Cl)c(OCCCBr)oc(=O)c2c1
Found: 1320

Lookup: Supply K obs / 1 value. Item: O=C(N[C@@H](Cc1ccccc1)C(=O)Nc1ccc2c(Cl)c(OCCBr)oc(=O)c2c1)c1ccccc1
Found: 30000

---

# Lookup of reported K obs / 1 keyed by entry
Biological target: Chymotrypsin-like elastase family member 2A (Sus scrofa) (UniProt P08419)
Sequence (whole entry): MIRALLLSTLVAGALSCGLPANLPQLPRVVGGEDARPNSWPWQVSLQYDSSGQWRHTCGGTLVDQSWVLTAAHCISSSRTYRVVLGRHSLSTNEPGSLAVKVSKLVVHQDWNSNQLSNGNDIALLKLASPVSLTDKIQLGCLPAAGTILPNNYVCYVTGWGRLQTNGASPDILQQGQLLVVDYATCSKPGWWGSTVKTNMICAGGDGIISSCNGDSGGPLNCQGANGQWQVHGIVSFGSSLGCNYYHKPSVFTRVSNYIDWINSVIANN
Experiment: The second order inactivation rate constant expressed as inhibition of porcine pancreatic elastase (PPE).Inhibitor concentrations were 0.04-2.0 mM
State the answer as a number, implicitly in M⁻¹ s⁻¹.

Lookup: Supply K obs / 1 value. Item: O=C(Nc1ccccc1)Nc1cccc(C(=O)NC(Cc2ccccc2)C(=O)Nc2ccc3c(Cl)c(OCCBr)oc(=O)c3c2)c1 (configuration not stated)
Found: 300

Lookup: Supply K obs / 1 value. Item: Cc1ccc(C(=O)N[C@@H](Cc2ccccc2)C(=O)Nc2ccc3c(Cl)c(OCCBr)oc(=O)c3c2)cc1
Found: 32

Lookup: Supply K obs / 1 value. Item: CC(=O)Nc1ccc2c(Cl)c(OCCCBr)oc(=O)c2c1
Found: 24

---

Target: Neutrophil elastase (Homo sapiens) (UniProt P08246)
Assay: The second order inactivation rate constant expressed as inhibition of human leukocyte elastase (HLE). Inhibitor concentrations were 0.07-710 uM
readout_label: K obs / 1

Lookup: Supply K obs / 1 value. Item: C[C@@H](NC(=O)Nc1ccc2c(Cl)c(OCCBr)oc(=O)c2c1)c1ccccc1
Found: > 570000 M⁻¹ s⁻¹

Lookup: Supply K obs / 1 value. Item: C[C@H](NC(=O)Nc1ccc2c(Cl)c(OCCBr)oc(=O)c2c1)c1ccccc1
Found: > 440000 M⁻¹ s⁻¹

Lookup: Supply K obs / 1 value. Item: O=c1oc(OCCBr)c(Cl)c2ccc(NC(=S)Nc3ccccc3)cc12
Found: > 480000 M⁻¹ s⁻¹

---

# Lookup of reported log10(K obs / 1) keyed by entry
Biological target: Chymotrypsin-like elastase family member 2A (Sus scrofa)
Assay: The second order inactivation rate constant expressed as inhibition of porcine pancreatic elastase (PPE).Inhibitor concentrations were 0.04-2.0 mM
Heads up: the numbers are on a log10 scale; they represent K obs / 1 in M⁻¹ s⁻¹.

compound	log10(K obs / 1)
O=C(Nc1ccc2c(Cl)c(OCCBr)oc(=O)c2c1)Nc1cccc2ccccc12	1.88
CC(C)(C)OC(=O)N[C@H](Cc1ccccc1)C(=O)Nc1ccc2c(Cl)c(OCCBr)oc(=O)c2c1	1.48
C[C@@H](OC(=O)Nc1ccccc1)C(=O)Nc1ccc2c(Cl)c(OCCBr)oc(=O)c2c1	1.11

Lookup: Supply log10(K obs / 1) value. Item: O=C1CC(c2ccccc2)CC(=O)N1c1ccc2c(Cl)c(OCCBr)oc(=O)c2c1
Found: 1.88

Lookup: Supply log10(K obs / 1) value. Item: O=c1oc(OCCBr)c(Cl)c2ccc(NC(=S)Nc3ccccc3)cc12
Found: 3.10

Lookup: Supply log10(K obs / 1) value. Item: Nc1ccc2c(Cl)c(OCCCBr)oc(=O)c2c1
Found: 1.00

These data points were gathered from ChEMBL document CHEMBL1128722.
